system: RXF 393; assay: NCI tumour cell line growth inhibition, 48 h
The source made the active and inactive calls. No stated cut-off is given here; in the data, active = GI50 up to about 1.1 µM and inactive = higher.
Hi! Could you answer with just one of these? 1 (active), -1 (inactive)

• Cn1c(=O)c2c(nc(-n3nc(-c4ccc(Cl)cc4)cc3N)n2C)n(C)c1=O = -1
• CCOC(=O)c1csc(NC(=O)CCN(CC)CC)n1 = -1
• CC[C@@]1(OC(=O)C(N)CCCCN)C(=O)OCc2c1cc1n(c2=O)Cc2cc3ccccc3nc2-1 (stereo not given in full) = 1
• Cc1cc(=O)oc2c1cc(OCC(=O)OCCN1CCCCC1)c1occ(C)c12 = -1

Here's the next entry for you.
query: Please state the recorded outcome for this molecule: "O=S(=O)(c1ccccc1)C(c1ccc2ccccc2n1)S(=O)(=O)c1ccccc1"
result: -1

----------
tested on: OVCAR-5; test: NCI tumour cell line growth inhibition, 48 h
Active and inactive are the calls of the source. Cut-off read from the data, not from the text of the source: active = GI50 up to about 1.1 µM and inactive = higher.
Hi! Could you answer with just one of these? active, inactive

Worked cases, answers included:
• CC(=O)O[C@@H]1O[Si](C(C)(C)C)(C(C)(C)C)[C@H](C)[C@H]1C = inactive
• COc1cc(/C=N/c2ccccn2)cc(OC)c1OC = inactive
• COc1ccc2c(c1)c(=O)c1c(NCCN(C)C)ccc3nnn2c31 = inactive
• O=C(NC(=O)c1ccccc1[N+](=O)[O-])Nc1ccc(Oc2ncc(Cl)cn2)c([N+](=O)[O-])c1 = active
• O=C(/C=C/c1cc2ccccc2o1)N1CCN(c2ccccn2)CC1 = inactive
• COC1C=COC2(C)Oc3c(C)c(O)c4c(O)c(c(C5SCCS5)c(O)c4c3C2=O)NC(=O)C(C)=C/C=C\C(C)C2OC(C)(C)OC(C2C)C(C)C(OC(C)=O)C1C (stereo unspecified) = inactive

query: Please state the recorded outcome for this molecule: Nc1nc(SCCNC(=O)CCc2ccc(O)c(I)c2)nc2c1ncn2C1OC(CO)C(O)C1O (stereo unspecified)
result: inactive

query: Please state the recorded outcome for this molecule: "COc1ccc(Br)c(/C=N\c2cccc3cc(OC)c(OC)cc23)c1"
result: inactive

query: Please state the recorded outcome for this molecule: CC#CC1/C(=C\C(=O)OC)CCCC1O (stereo unspecified)
result: inactive

----------
system: MOLT-4; experiment: NCI tumour cell line growth inhibition, 48 h
The source made the active and inactive calls. Cut-off read from the data, not from the text of the source: active = GI50 up to about 1.1 µM and inactive = higher.
Parameter: GI50. Scope: all listed entries.

Illustrative cases are given below, each with its answer.
• NCCCNCCS = > 100 µM (inactive)
• Cc1nc2c(N3CCCC3)nc(N3CCNCC3)nc2nc1NCc1ccccc1 = 2.52 µM (inactive)
• O=C1C(=Cc2cccs2)C(=O)N(CCc2ccccc2)S(=O)(=O)N1CCc1ccccc1 = > 50 µM (inactive)
• N#CC(NNC(=O)c1ccccc1O)c1cccc(O)c1 (stereo unspecified) = 58.2 µM (inactive)
• O=C(/C=C1\N=C(c2ccccc2)N(c2nc3ccc(Sc4ccccc4)cc3[nH]2)C1=O)/C=C/c1ccccc1 = 33.3 µM (inactive)

query: Please give the measured GI50 for this molecule: "Cc1ccc2nc(-c3ccc(-n4c(C)nc(=O)c(-c5ccc(F)cc5)c4C)cc3)sc2c1"
result: 7 µM (inactive)

query: Please give the measured GI50 for this molecule: "Cc1cc(C)c2c(c1C)CN1CN2Cc2c(C)c(C)cc(C)c21"
result: > 100 µM (inactive)

query: Please give the measured GI50 for this molecule: "COc1ccc(S(=O)(=O)N/N=C(\C)CN2C(=O)c3ccccc3C2=O)cc1OC"
result: > 100 µM (inactive)

query: Please give the measured GI50 for this molecule: "O.O=C([O-])c1ccccc1Nc1ccccc1C(=O)[O-].[Zn+2]"
result: 30.5 µM (inactive)

query: Please give the measured GI50 for this molecule: "O=c1[nH]c2c(S)nc(O)nc2n1-c1ccccc1"
result: > 100 µM (inactive)

query: Please give the measured GI50 for this molecule: "N=C(N)C1=C(O)NC(=O)N(C2CCCCC2)C1"
result: > 100 µM (inactive)
